biological target: Serine/threonine-protein kinase PLK1 (Homo sapiens); details: at 1 µM;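 note: reported value is a mean PLK1 inhibition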

compound	assayed.system	inhibition / %
Fc1cccc(COc2ccc(Nc3ncnc4sc(-c5cccs5)cc34)cc2Cl)c1	Serine/threonine-protein kinase PLK1 (Homo sapiens)	2.97
CN(C)c1cc2c(Nc3ccc4nc(Cc5ccccc5)[nH]c4c3)ncnc2cn1	Serine/threonine-protein kinase PLK1 (Homo sapiens)	6.34
CS(=O)(=O)CCN(CC#N)Cc1ccc(-c2ccc3ncnc(Nc4ccc(OCc5cccc(F)c5)c(Cl)c4)c3c2)o1	Serine/threonine-protein kinase PLK1 (Homo sapiens)	2.97
Cc1nn(C)c2cc(N(C)c3ccnc(Nc4cccc(S(N)(=O)=O)c4)n3)ccc12	Serine/threonine-protein kinase PLK1 (Homo sapiens)	3.39
Cc1ccc(NC(=O)c2ccnc(N3CCCC3)c2)cc1-c1ccc(C(=O)NCC2CC2)cc1	Serine/threonine-protein kinase PLK1 (Homo sapiens)	4.57
CNC(=O)c1cncc(/C=C/c2c(Cl)cccc2Cl)c1	Serine/threonine-protein kinase PLK1 (Homo sapiens)	7.28
NC(=O)c1cccc(Nc2nccc(Nc3cccc4[nH]ncc34)n2)c1	Serine/threonine-protein kinase PLK1 (Homo sapiens)	3.37
NCc1ccc(-c2nc(-c3ccc(Cl)c(O)c3)c(-c3ccncc3)[nH]2)cc1	Serine/threonine-protein kinase PLK1 (Homo sapiens)	2.1
COC(=O)Nc1nc2cc(Oc3cccc(NC(=O)Nc4cc(C(F)(F)F)ccc4F)c3)ccc2[nH]1	Serine/threonine-protein kinase PLK1 (Homo sapiens)	0.56
CCn1c(-c2nonc2N)nc2c(C#CC(C)(C)O)nc(CN3CCCC3)cc21	Serine/threonine-protein kinase PLK1 (Homo sapiens)	-1.2
Fc1cccc(COc2ccc(Nc3ncnc4cc(-c5ccc[nH]5)sc34)cc2Cl)c1	Serine/threonine-protein kinase PLK1 (Homo sapiens)	3.54
Nc1ncnc2occ(-c3ccc(NC(=O)Nc4cccc(C(F)(F)F)c4)cc3)c12	Serine/threonine-protein kinase PLK1 (Homo sapiens)	5.99
CCc1cccc(NC(=O)Nc2ccc(Oc3ccc4nc(NC(=O)OC)[nH]c4c3)cc2)c1	Serine/threonine-protein kinase PLK1 (Homo sapiens)	1.1
COc1ccc(-c2ccncc2)cc1C(N)=O	Serine/threonine-protein kinase PLK1 (Homo sapiens)	6.97
c1cnn2ncc(-c3ccnc(Nc4ccc5c(c4)OCCO5)n3)c2c1	Serine/threonine-protein kinase PLK1 (Homo sapiens)	29.4
COc1cc2c(cc1Nc1nc(N3CCc4ccccc43)c3cc[nH]c3n1)N(C(=O)CN(C)C)CC2	Serine/threonine-protein kinase PLK1 (Homo sapiens)	25.4
O=C1NC(=O)C(c2cccc(Cl)c2)=C1Nc1ccc(O)c(Cl)c1	Serine/threonine-protein kinase PLK1 (Homo sapiens)	3.21
CC1=C(C(=O)Nc2ccc3[nH]ncc3c2)C(c2ccc3ccccc3c2)CC(=O)N1 (stereo unspecified)	Serine/threonine-protein kinase PLK1 (Homo sapiens)	1.98
CCn1c(-c2nonc2N)nc2cnc(Oc3cccc(NC(=O)c4ccc(OCCN5CCOCC5)cc4)c3)cc21	Serine/threonine-protein kinase PLK1 (Homo sapiens)	2.83
CC(=O)Nc1cccc(C#Cc2cncnc2Nc2ccc(OCc3cccc(F)c3)c(Cl)c2)n1	Serine/threonine-protein kinase PLK1 (Homo sapiens)	-3.29
CC(C)=Cc1cccc2c1/C(=N/Nc1ccc(S(N)(=O)=O)cc1)C(=O)N2	Serine/threonine-protein kinase PLK1 (Homo sapiens)	0.59
CS(=O)(=O)CCNCc1ccc(-c2ccc3ncnc(Nc4ccc(OCc5cccc(F)c5)c(C(F)(F)F)c4)c3c2)o1	Serine/threonine-protein kinase PLK1 (Homo sapiens)	3.53
NC(=O)c1ccc(-c2nc(-c3ccccn3)c(-c3ccc4c(c3)OCO4)[nH]2)cc1	Serine/threonine-protein kinase PLK1 (Homo sapiens)	2.1
CS(=O)(=O)CCNCc1ccc(-c2ccc3ncnc(Nc4ccc(OCc5ccccc5)c(Cl)c4)c3c2)o1	Serine/threonine-protein kinase PLK1 (Homo sapiens)	2.99
O=C1Nc2ccc(C(=O)c3ccco3)cc2C1=Cc1cc(Cl)c(O)c(Cl)c1	Serine/threonine-protein kinase PLK1 (Homo sapiens)	43.2
COc1ccc(COc2ccc(Cc3cnc(N)nc3N)cc2OC)cc1	Serine/threonine-protein kinase PLK1 (Homo sapiens)	3.71
CC1=C(C(=O)Nc2ccc3[nH]ncc3c2)C(c2ccc(Cl)c(Cl)c2)CC(=O)N1 (stereo unspecified)	Serine/threonine-protein kinase PLK1 (Homo sapiens)	1.43
CCCN1CCC(Oc2cc(Nc3nc(Nc4cccc(F)c4C(N)=O)c4cc[nH]c4n3)c(OC)cc2Cl)CC1	Serine/threonine-protein kinase PLK1 (Homo sapiens)	47.5
CCn1c(-c2nonc2N)nc2c(C#CC(C)(C)O)nc(OC[C@@H](N)c3ccccc3)cc21	Serine/threonine-protein kinase PLK1 (Homo sapiens)	0.17
CCN1CCC(CC(=O)Nc2n[nH]c3nc(-c4cccs4)c(Br)cc23)CC1	Serine/threonine-protein kinase PLK1 (Homo sapiens)	-3.47
CCn1c(-c2nonc2N)nc2ccncc21	Serine/threonine-protein kinase PLK1 (Homo sapiens)	2.44
COc1ccc2cc(-c3c(-c4ccncc4)nc(-c4ccc([S+](C)[O-])cc4)n3C)ccc2c1 (stereo unspecified)	Serine/threonine-protein kinase PLK1 (Homo sapiens)	4.45
Cc1nnc(-c2ccc(C)c(-c3ccc(C(=O)Nc4cccc(C#N)c4)cc3)c2)o1	Serine/threonine-protein kinase PLK1 (Homo sapiens)	1.18
COc1ccccc1Nc1ncc(-c2ccccc2)o1	Serine/threonine-protein kinase PLK1 (Homo sapiens)	4.18
O=C1NC(=O)C(N2CCc3ccccc32)=C1c1ccc(Cl)cc1	Serine/threonine-protein kinase PLK1 (Homo sapiens)	2.74
Nc1nc(-c2ccccn2)c(-c2ccc3ncccc3n2)s1	Serine/threonine-protein kinase PLK1 (Homo sapiens)	2.12
